# System: Alternaria tenuis CBS 10426
# Assay Explanation: Microbiological test
# Type: cell-based
Provide the reported Activity range of each item.
Give the quantity in ppm, number only.

CCC[CH2][Sn]([CH2]CCC)([CH2]CCC)[S]CC(=O)[O-].OCC[NH+](CCO)CCO yielded Activity range of 10

O=S(=O)([O-])CCC[S][Sn]([c]1ccccc1)([c]1ccccc1)[c]1ccccc1.[Na+] yielded Activity range of 10

----------
# Tested on: Aspergillus niger ATCC 6275
# Assay Explanation: Microbiological test
# Type: cell-based
Endpoint: Activity range (ppm)
Give the quantity in ppm, number only.

O=S(=O)([O-])CCC[S][Sn]([c]1ccccc1)([c]1ccccc1)[c]1ccccc1.[Na+] [Compound 2] yielded Activity range of 30

CCC[CH2][Sn]([CH2]CCC)([CH2]CCC)[S]CCC(=O)[O-].OCC[NH+](CCO)CCO [Compound 5] yielded Activity range of 10

CCC[CH2][Sn]([CH2]CCC)([CH2]CCC)[S]CC(=O)[O-].OCC[NH+](CCO)CCO [Compound 4] yielded Activity range of 10

CCC[CH2][Sn]([CH2]CCC)([CH2]CCC)[S]CC(=O)N(CCO)CCO [Compound 6] yielded Activity range of 10
